# Test system: Wolbachia pipientis
# procedure_details: Anti-Wolbachia Cell-Based Screen
# Format: functional
# Set-up: scale not given: in the data most compounds retested in dose-response had high values
# stated_conditions: 5 µM
The whole screen tested about 48,000 compounds, of which about 13,000 (27%) showed an effect of 50% or more. The list shows a part of the results.
endpoint_name: Percent Effect (%)

• Cc1noc(C)c1CCC(=O)N1CCCN(Cc2cscn2)CC1 = -9.58
• CC(C)c1noc(C2CCCN2C(=O)CN2CCc3ccccc32)n1 (configuration not stated) = -3.468
• Cc1cnn(CC2CN(Cc3cccc(OC(C)C)c3)CCO2)c1 (configuration not stated) = 92.31
• CC(=O)N1CCC2(CCN(CC3CCOC3)C2)CC1 (configuration not stated) = 104
• CCc1nc(CN2CCCN(C(=O)CCc3ccco3)CC2)cs1 = -5.985
• Cc1cnn(CC2CN(Cc3cccnc3)CCO2)c1 (configuration not stated) = 94.04
• CC(=O)N1CCc2[nH]cnc2C12CCN(CC1CCOC1)CC2 (configuration not stated) = -0.2967
• Cc1nc(CN2CCN(C(=O)CCc3ccco3)CC2)cs1 = 84.98
• CNC(=O)CN1CCC2(CCCN(CC3CCOC3)C2)CC1.O=C(O)C(F)(F)F.O=C(O)C(F)(F)F (configuration not stated) = 105.4
• Cc1cnn(CC2CN(Cc3ccc(C(N)=O)cc3)CCO2)c1 (configuration not stated) = 85.4
• Cc1nc(CN2C[C@@H]3CN(C(=O)CC(F)(F)F)C[C@@H]3C2=O)cs1 = -5.241
• Cc1nc(CN2CCCN(C(=O)c3cccn3C)CC2)cs1 = -4.038
• CSCC(=O)Nc1nccn1Cc1ccc(Br)cc1 = -2.171
• Cc1cnn(CC2CN(Cc3cccc(OCC(N)=O)c3)CCO2)c1 (configuration not stated) = -6.391
• Cc1cc(-c2ccc(=O)n(C3CCN(C(=O)C4CCC4)CC3)n2)c(C)o1 = 91.93
• Cc1nc(CN2C[C@@H]3CN(C(=O)c4ccoc4C)C[C@@H]3C2)cs1 = 104.4
• Cc1ccc(C(=O)N(C)C)cc1NC(=O)COCC1CC1 = -15.5
• Cc1cc(-c2ccc(=O)n(C3CCN(C(=O)C4CC4)CC3)n2)c(C)o1 = 96.13
• Cc1cnn(CC2CN(Cc3cccc(C(=O)N(C)C)c3)CCO2)c1 (configuration not stated) = 5.735
• COC(=O)C(C)CN(Cc1ccccc1)C(=O)CN1CCCNC1=O (configuration not stated) = -9.826
• CC(c1ccon1)N(C)C(=O)C1CCN(C(=O)C2CC2)CC1 (configuration not stated) = 3.184
• O=C(CCc1cccc(F)c1F)N1CCN(Cc2ccco2)CC1 = 9.986

----------
Listed below: Percent Effect values for each entry.
# Tested on: Wolbachia pipientis
# procedure_details: Anti-Wolbachia Cell-Based Screen
# Type: functional
# Set-up: scale not given: in the data most compounds retested in dose-response had high values
# stated_conditions: 5 µM
Among all 48,000 compounds or so, about 13,000 (27%) showed an effect of 50% or more. This is one part of the list.
endpoint_name: Percent Effect (%)

• CC(C)(C)c1cnc(CN2CCC[C@H]2CO)o1 = -3.159
• Cc1ccc(NC2CCN(C(=O)c3c(C)noc3C)CC2)nn1 = 4.919
• Cc1cc(CN(C)C(=O)c2ccc(F)cc2Br)no1 = -8.681
• Cc1cnn(CC2CCCCN2Cc2ncc(C(C)(C)C)o2)c1 (stereo not given) = 103.7
• Cc1cc(CNC(=O)c2ccc(F)c(COCC3CC3)c2)no1 = 7.35

Data credit: ChEMBL document CHEMBL3988442
